property.name: melting point

Worked cases, melting point given:
N#Cc1ccc(-c2cccc(-c3nc4cc(C#N)ccc4[nH]3)c2O)cc1    318 to 320 °C
CSc1ncc(-c2ccccc2)c(=O)[nH]1    252 to 254 °C
C[C@@H]1O[C@](C#CC2CC2)(C(F)(F)F)c2cc(F)ccc2NC1=O (relative stereo)    184 to 185 °C
COc1ccc2ccc(N3C(=O)c4ccccc4C3OCC(=O)N3CCC(O)CC3)nc2n1 (centres undefined)    167 °C
FC(F)(F)Oc1ccc(Nc2cc(-c3ccccc3)nc(-c3ccccc3)n2)cc1    220 to 222 °C
CCCN1CCC23c4cccc(OC)c4OC2C2CCC3(C1)C(COC)C2 (centres undefined)    130 to 131 °C
CCN(CC)C(=O)c1cc(-c2ccc(OC)cc2)ccc1-c1ccccc1    117 to 118 °C
COc1cc2c(cc1OC)CN(CCCCNC(=O)c1cc(C)ccc1OCCOCCF)CC2    89.2 to 89.5 °C

// switching to the query compound
Can you share its melting point? I mean this compound: CN(Cc1ccccc1)C(=O)Cn1nc(-c2ccccc2O)nc1-c1ccccc1O
179 to 180 °C
